The reported numbers originate from PubChem BioAssay (NCI).

Test system: SF-268 CNS
Experiment: NCI-60 one-dose screen, 48 h (100 = growth as untreated, 0 = no growth, -100 = all killed)
Details: 10 µM unless noted
The panel holds about 83,000 compounds, 20% with a hit somewhere; the sample as a whole holds those more often.
Recorded growth by entry
Response body: numeric value in %, unit text excluded.

Example entries and their recorded answers appear below.
Compound: C=C(CNCCO)[C@@H]1CC[C@]2(CO)CC[C@]3(C)[C@H](CC[C@@H]4[C@@]5(C)CCC(N)C(C)(C)[C@@H]5CC[C@]43C)[C@@H]12 (some centres undefined)
Value Units: %
growth: 33.1

Compound: O=C(Nc1ccccc1O)c1ccc(CNC(=O)c2ccsc2Nc2ccnc(C(F)(F)F)c2)cc1
Value Units: %
growth: 40.2

Compound: N[C@H]1CCC[C@@H]1NCCCCN1C(=O)c2cccc3cc([N+](=O)[O-])cc(c23)C1=O
Value Units: %
growth: 36.5

Compound: CN(C)c1ccc(-c2nc(-c3ccccc3)c(-c3ccccc3)[nH]2)cc1
Value Units: %
growth: 112

Compound: COc1ccc(/C=C/c2c(C(=O)/C=C/c3ccccc3)c(C)nc3ccccc23)cc1
Value Units: %
growth: 45.3

Query growth on SF-268 CNS for `Cn1cc(-c2csc(-c3cn(CCCN4CCOCC4)c4ccccc34)n2)c2cccnc21`
91.7

Query growth on SF-268 CNS for `Cn1cc(-c2nn3cc(-c4cccs4)nc3s2)c2cc(F)ccc21`
45.2

Query growth on SF-268 CNS for `Cc1ccc(/C=C/C(=O)c2cccc(OCCCOc3cccc(C(=O)/C=C/c4ccc(C)cc4)c3)c2)cc1`
79.6

Query growth on SF-268 CNS for `CCN(CC)CCCOc1ccc2ncnc(Nc3ccc(Oc4cccc(C(F)(F)F)c4)c(Cl)c3)c2c1`
35.1

* * *

System: SK-MEL-2 melanoma
Assay: NCI-60 one-dose screen, 48 h
Conditions: 10 µM unless noted
This is part of a sample that, as a whole, favours compounds with a hit. Of some 83,000 tested, about 20% had one in any assay. Active and inactive are the calls of the source. How the source made its calls: active means growth percent below 10; inactive means the rest.
Please reply with one of these outcomes: YES (active), NO (inactive)

Molecule: CSC(SC)=C(C#N)c1nc2ccccc2s1
Experimental System: SK-MEL-2 melanoma
Qualitative Label: NO
--
Molecule: O=c1c2ccccc2c(=O)c2c1sc1c(=O)c3ccc(O)cc3c(=O)c12
Experimental System: SK-MEL-2 melanoma
Qualitative Label: YES
--
Molecule: CC1=C2[C@@H](CC1)[C@]1(C)O[C@@](C3CCCCC3)(C[C@H]1OC(=O)CO)[C@H]2OC(=O)/C=C/c1ccccc1
Experimental System: SK-MEL-2 melanoma
Qualitative Label: NO
--
Molecule: CN1CCN(CCOc2ccc(-c3cnc4c(-c5cccc(F)c5F)cnn4c3)cc2)CC1
Experimental System: SK-MEL-2 melanoma
Qualitative Label: NO
--
Molecule: Cc1[nH]c(C2CC(c3ccc(C(F)(F)F)c(F)c3)=NN2c2ccccc2)c(C)c1C(=O)NCC(F)(F)F (stereo not given)
Experimental System: SK-MEL-2 melanoma
Qualitative Label: NO

Hello, I am checking results. What call was entered for `Cc1ccc(S(=O)(=O)c2nc(-c3ccccc3)oc2Sc2nc3ccccc3s2)cc1` ?
NO

Hello, I am checking results. What call was entered for `Cc1ccc2c(=O)cc(C(=O)Nc3sc4c(c3C(=O)NCc3cccnc3)CCCC4)oc2c1C` ?
NO

Hello, I am checking results. What call was entered for `COc1cc(C(=O)c2c(-c3ccccc3)oc3c(OC)cccc23)cc(OC)c1OC` ?
NO

Hello, I am checking results. What call was entered for `COc1ccc2c(c1)c(-c1nc(-c3c[nH]c4ncccc34)cs1)cn2CCCN1CCOCC1` ?
NO

Hello, I am checking results. What call was entered for `COc1cccc(CCNc2ncnc3c2ncn3Cc2nnc3c4ccccc4c(Cl)nn23)c1` ?
NO

Hello, I am checking results. What call was entered for `Nc1ccc(-c2csc(-n3[nH]c(=O)ccc3=O)n2)cc1` ?
NO

Hello, I am checking results. What call was entered for `C=C(C)[C@@H]1CC[C@]2(C(N)=O)CC[C@]3(C)[C@H](CC[C@@H]4[C@@]5(C)CC[C@H](OCCC#N)C(C)(C)[C@@H]5CC[C@]43C)[C@@H]12` ?
NO

Hello, I am checking results. What call was entered for CC1C(/C=N/NC(N)=S)C(C#N)(C#N)C1(C#N)C#N (stereo not given) ?
NO
